- Experiment notes: High-throughput drug toxicity screening in the BPDCN cell line Gen2.2 (AID 1224824);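 also: cells exposed to compounds for 48 h before reading; 100% = DMSO and 0% = bortezomib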
- Settings: Gen2.2 BPDCN cells; at 45.8 µM (top of the series) unless noted
Endpoint label: cell viability, % of control (lower = more cytotoxic) (% [at 92.2 µM])
// units = % [at 92.2 µM]; emit number, no label

| Compound | Unit label | Quantitative result |
| --- | --- | --- |
| Cc1cn([C@H]2C=C[C@@H](CO)O2)c(=O)[nH]c1=O | % [at 92.2 µM] | 82.4 |

Proceeding to the next compound to report its cell viability, % of control (lower = more cytotoxic).
Enquiry: Please give the measured cell viability, % of control (lower = more cytotoxic) for this compound: CC(C)(Oc1ccc(C2CC2(Cl)Cl)cc1)C(=O)O (stereo not drawn)
Return: 77.7
